Reference for the values: paper PMC8667045

For each record, write down the corresponding pIC50.
# target: BCL6 BTB domain (Homo sapiens, UniProt P41182)
# assay_explanation: biochemical
# settings: read-out: TR-FRET IC50, tables and figures
Numbers only, as −log10 of the molar value.

Look over these answered cases.
CCNc1cc(=O)n(C)c2ccc(Nc3cc(C(=O)O)nc(Cl)c3C#N)cc12 [Compound 11a]    6.05
Cn1c(=O)cc(NCCF)c2cc(Nc3cc(C(=O)O)nc(Cl)c3C#N)ccc21 [Compound 11c]    6.06
CNC(=O)C(Nc1cc(=O)[nH]c2ccc(Nc3ccnc(Cl)c3C#N)cc12)C1CC1 (stereo not shown) [Compound 12d]    5.97
N#Cc1c(Nc2ccc3[nH]c(=O)cc(N4CCOCC4)c3c2)ccnc1Cl    5.67

For each entry beneath this line, provide reported pIC50.
1. CNC(=O)[C@H](C)Nc1cc(=O)[nH]c2ccc(Nc3ccnc(Cl)c3C#N)cc12 [Compound 12c]
2. Cc1nnc(C(C)Nc2cc(=O)n(C)c3ccc(Nc4ccnc(Cl)c4C#N)cc23)o1 (stereo not shown) [Compound 13c]
3. CN(C)c1cc(=O)[nH]c2ccc(Nc3ccnc(Cl)c3C#N)cc12
4. N#Cc1c(Nc2ccc3[nH]c(=O)cc(N4CCCCC4)c3c2)ccnc1Cl
5. CCNc1cc(=O)[nH]c2ccc(Nc3ccnc(Cl)c3C#N)cc12
6. CCCNc1cc(=O)n(C)c2ccc(Nc3cc(C(=O)O)nc(Cl)c3C#N)cc12 [Compound 11b]

stdout:
[5.57, 6.06, 5.25, 5.93, 5.88, 5.82]
